- assay.protocol: small molecules boosting NK-mediated OVCAR3 lysis – imaging, primary NK cells, calcein-AM imaging, primary screen (AID 1508625);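 further: compound given to NK cells 16 h before adding targets at 1.5 to 1 ratio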;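 on Z-score: more negative robust z means stronger NK killing of tumor cells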
- assay.context: OVCAR3 lysis by primary NK cells, at 5 µM; measured here: robust Z-score, single-point normalisation
quantity: z-score
Would you mind answering with just the numeric figure?

response.value for COc1cc(NC(=O)c2cc(Cl)cc(Cl)c2OC)ccc1NC(=O)c1ccccc1Cl (field: z-score) = -0.797

The reported z-score of the molecule O=C1C(=O)N(Cc2cccnc2)C(c2ccccc2)C1=C(O)c1ccc(F)cc1 (stereo unspecified) was -0.837

z-score in this record for CC(C)c1ccc(OCC(=O)Nc2ccc3c(c2)OCCO3)cc1 : -0.869

Record summary for Cc1ccc2c(c1)NCC(C(=O)O)O2 (stereo unspecified) : reported z-score = -1.31

// CCN(C(=O)c1cc2cc3ccc(OC)cc3nc2o1)c1cccc(C(F)(F)F)c1 : z-score value = -0.898

Item: Cc1cc(-n2c(N)c(C(N)=O)sc2=S)ccc1Cl | z-score: -1.1

The molecule listed as O=C(Nc1ccc2c(c1)OCCO2)c1cc2cc3ccc(Cl)cc3nc2o1 has a reported z-score of -0.854

// Cc1c(C(=O)O)oc2ccc(S(=O)(=O)N3CCOCC3)cc12 : z-score value = -0.692

Further cases:
Notebook: O=c1c2cn[nH]c2nc(SCc2ccccc2F)n1-c1ccc(Oc2ccccc2)cc1 , z-score read as -0.251

Just so you know, measured z-score for CCOc1ccc(S(=O)(=O)Nc2ccc(Cl)cc2)c2cccnc12 came out at -0.989

# molecule Cn1c(=O)c2c(nc(Oc3ccc(Cl)cc3)n2Cc2ccccc2Br)n(C)c1=O ; its z-score = -0.9

----------
Quick reference: z-score of the listed items.
- assay.protocol: small molecules boosting NK-mediated OVCAR3 lysis – imaging, primary NK cells, calcein-AM imaging, primary screen (AID 1508625);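 further: compound given to NK cells 16 h before adding targets at 1.5 to 1 ratio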;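 on z-score: more negative robust z means stronger NK killing of tumor cells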
- assay.context: OVCAR3 lysis by primary NK cells, at 5 µM; measured here: robust Z-score, single-point normalisation
Could you keep your reply to the number by itself?

Example cases with answers are listed next.
Per the records, this compound ( CC1=NNC(=O)C1CCC(=O)NN=Cc1ccncc1 (stereo unspecified) ) has z-score equal to -2.12

response.value for CC(C)OC(=O)CN1CCCN(S(=O)(=O)c2ccc(F)cc2)CC1 (field: z-score) = -0.969

The reported value for O=C1C2C3C=CC(C3)C2C(=O)N1CCCO (stereo unspecified) in terms of z-score is -0.311

z-score in this record for Cc1cc(Br)ccc1NC(=O)CCNC(=O)Cn1cnc2sc3c(c2c1=O)CCCC3 : -0.0893

z-score in this record for COCCN(CCOC)C(=O)c1cc2c(=O)n3ccccc3nc2s1 : -0.502

Next:
Entry COc1cc(C(=O)N2N=C(C3CC3)CC2(O)C(F)(F)F)cc(OC)c1OC (stereo unspecified) , z-score reported as -1.41

----------
- assay.protocol: small molecules boosting NK-mediated OVCAR3 lysis – imaging, primary NK cells, calcein-AM imaging, primary screen (AID 1508625);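 further: compound given to NK cells 16 h before adding targets at 1.5 to 1 ratio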
- assay.context: OVCAR3 lysis by primary NK cells, at 5 µM
quantity: corrected activity, negative = more killing (%)
Record the value in %, omitting the unit from your answer.

Examples with answers:
Kindly note the recorded corrected activity, negative = more killing for CN(C(=O)c1cnc2n(c1=O)CCS2)c1ccccc1 , which is -7.51

get_value(item= CC1=C(C)CC(C(=O)Nc2ccc(S(=O)(=O)N3CCOCC3)cc2)C(C(=O)O)C1 (stereo unspecified) , readout=corrected activity, negative = more killing) returns -10.2

// corrected activity, negative = more killing value for O=C(COc1ccccc1)NCCSc1nc2ccccc2s1 : -4.8

// field: corrected activity, negative = more killing; key: CN(C)c1ccc(C=C(C(=O)c2ccccc2)c2nc3ccccc3[nH]2)cc1 ; value = -1.99

---
corrected activity, negative = more killing in this record for CCC1CCCCN1C(=O)c1cc2c(=O)n3ccccc3nc2s1 (stereo unspecified) : -5.2

// corrected activity, negative = more killing value for O=C(c1ccc2c(=O)n(-c3ccc(F)cc3)c(=S)[nH]c2c1)N1CCc2ccccc2C1 : -0.906

Input CCN(c1ccccc1C(=O)O)S(=O)(=O)c1cccc2nsnc12 . Output corrected activity, negative = more killing: -4.09

For CC1CCCN(c2ncnc3scc(-c4ccccc4)c23)C1 (stereo unspecified) the compound record lists corrected activity, negative = more killing as -2.34

Reported corrected activity, negative = more killing for Cc1cccn2c(=O)c3cc(C(=O)N(CC(C)C)CC(C)C)sc3nc12 was -8.5

Record Cc1onc(-c2ccccc2)c1C(=O)Nc1cccc(Br)c1 . Reported corrected activity, negative = more killing: -5.57

corrected activity, negative = more killing reading for CCC(C)NC(=O)c1ccc2c(=O)n(Cc3ccccc3OC)c(=S)[nH]c2c1 (stereo unspecified) : -7.22

----------
- assay.protocol: small molecules boosting NK-mediated OVCAR3 lysis – imaging, primary NK cells, calcein-AM imaging, primary screen (AID 1508625);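 further: compound given to NK cells 16 h before adding targets at 1.5 to 1 ratio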;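 on Z-score: more negative robust z means stronger NK killing of tumor cells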
- assay.context: OVCAR3 lysis by primary NK cells, at 5 µM; measured here: robust Z-score, single-point normalisation
Measured z-score of individual entries

Lookup result for COc1ccc(CNC(=O)CSc2nc3cc(Cl)ccc3s2)cc1 ; measured z-score: -0.516

According to the records, this molecule O=C(CSCc1ccccc1F)N1CCc2ccccc21 displays z-score of -2.65

What the record says about CCOc1ccc2cc(C3=NN(C(=O)CCC(=O)O)C(c4ccc(Br)cc4)C3)c(Cl)nc2c1 (stereo unspecified) : z-score is -1.55

What the record says about O=C(O)CN1C(=O)c2ccc(C(=O)O)cc2C1=O : z-score is -1.62

New cases:
Lab book: z-score of Cc1ccc2c(N)c(C#N)sc2n1 noted as -0.166

z-score reading for FC(F)(F)c1ccc(Oc2cccc(C(F)(F)F)c2)nc1 : -1.1

Lab note: measured z-score of COc1cc(C=C2C=C(c3ccc(C)cc3)OC2=O)cc(OC)c1OC was -0.181

Lab note: O=C(Nc1nc2ccccc2s1)C(=O)Nc1nc2ccccc2s1 gave z-score of 0.309

# z-score (molecule: COc1ccc(N2C(=O)c3ccc(C)cc3C2=O)cc1OC ) is -2.54

Reported z-score of O=C(NC1CCCC1)c1c[nH]c2ccc(S(=O)(=O)Nc3cccc(C(F)(F)F)c3)cc2c1=O : -1.72

Quick note, z-score for O=C(NN=Cc1c(Br)cc(Br)c(O)c1Br)c1ccncc1 landed at -0.607

----------
Reported z-score values are given for each entry in this list.
- assay.protocol: small molecules boosting NK-mediated OVCAR3 lysis – imaging, primary NK cells, calcein-AM imaging, primary screen (AID 1508625);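 further: compound given to NK cells 16 h before adding targets at 1.5 to 1 ratio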;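 on z-score: more negative robust z means stronger NK killing of tumor cells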
- assay.context: OVCAR3 lysis by primary NK cells, at 5 µM; measured here: robust Z-score, single-point normalisation
Lab note: record just the number, no unit beside it.

Below are worked cases with known answers.
Lab note: CCOC(=O)c1ccc(NC(=O)C(=O)N2CCCC2)cc1 gave z-score of -2.55

So for O=c1c2cc3c(cc2nc(SCc2cccc(F)c2)n1Cc1ccco1)OCO3 , the logged z-score turned out to be -0.995

New cases:
// z-score lookup, compound = Cn1c(SCC(=O)Nc2cc(C(F)(F)F)ccc2Cl)nc2c([nH]c3ccccc32)c1=O , result: -1.58

Sample Cn1c2ccccc2c(=Nc2ccc(Br)cc2)c2ccccc21 ; z-score observed: -1.48

In plain terms, Cc1ccc(NC(=O)CSc2ccc(Nc3ccc(C)cc3)nn2)cc1 has a documented z-score of -0.695

Looking up CCCCC(=O)NC(=S)Nc1ccc(Cl)c(C(=O)O)c1 , I see its z-score listed as -1.64

For record CCc1ccc(-c2nc3ccccc3c(C(=O)O)c2C)cc1 the listed z-score is -1.41

z-score recorded for this compound, COc1ccc(Cl)cc1NC(=O)CSc1nc2c([nH]c3ccccc32)c(=O)n1C , is -0.59

Record Cc1ccccc1C(=O)Nc1ccc(C(=O)O)cc1NC(=O)c1ccccc1C , field z-score: -0.197

So for O=C(NC1CCCCCC1)c1coc(=O)c2ccccc12 , the logged z-score turned out to be -0.781

get_value(item= CCCCNC(=O)c1cc(Nc2ccc(CC)cc2)nc2ccccc12 , readout=z-score) returns -2.03

----------
- assay.protocol: small molecules boosting NK-mediated OVCAR3 lysis – imaging, primary NK cells, calcein-AM imaging, primary screen (AID 1508625);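 further: compound given to NK cells 16 h before adding targets at 1.5 to 1 ratio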
- assay.context: OVCAR3 lysis by primary NK cells, at 5 µM
# key: entry, value: corrected activity, negative = more killing
Response body: numeric value in %, unit text excluded.

Briefly, corrected activity, negative = more killing measured for Cc1cc(Br)cc2c(N=NC(=O)c3ccccc3)c(O)[nH]c12 : -1.64

// sample O=C(Nc1ccccc1C(=O)O)c1cc(S(=O)(=O)Nc2ccc(Br)cc2)ccc1Cl , its corrected activity, negative = more killing was -14.5

The measured corrected activity, negative = more killing associated with COc1cc(OC)cc(C(=O)N2CCN(C3CCC(C)CC3)CC2)c1 (stereo not given) reads -1.69

New cases:
Record Cc1ccc(-n2c(SCC(=O)Nc3cccc(F)c3)nc3c(c2=O)SCC3)cc1 , field corrected activity, negative = more killing: -3.47

Looking up CN1C(=O)c2ccccc2C(C(=O)Nc2ccc3c(c2)OCCO3)C1c1cccs1 (stereo not given) , I see its corrected activity, negative = more killing listed as -7.21
